Hello, the source for this data is paper PMC9482650, in case you need it.

molecular target: Inadl_6, Q8NI35; assay: holdup assay; set-up: key: below the threshold = too weak to quantify, mostly under pKd 3.1 to 4; settings: plain residues with an end cap or a label only (N-terminal biotin on a linker: ttds)
Sequence (Q8NI35 1058-1167): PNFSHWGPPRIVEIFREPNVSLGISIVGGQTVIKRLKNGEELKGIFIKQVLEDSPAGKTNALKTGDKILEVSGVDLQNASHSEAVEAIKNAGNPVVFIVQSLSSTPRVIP
attribute_measured: pKd

As a guide, the following entries are already answered.
>>> test_result("RLPKIKETTV [FRMPD4, Q14CM0]")
"below the threshold"
>>> test_result("RPLPRKVSQL [DOCK4, Q8N1I0]")
"below the threshold"
>>> test_result("QRQARSETLV [HPV59-E6, Q81964]")
"below the threshold"
>>> test_result("SGSRPSATVV [HPV73-E6, Q82005]")
"below the threshold"
>>> test_result("SSLQSLETSV [ATP2B4, P23634]")
"below the threshold"

Give pKd for the following binder: PVRVCEETSL [OTULIN, Q96BN8]
4.4

Respond only with pKd recorded for NDPAWDETNL [ARHGEF7, Q14155;Q14155-1]
4.09

Give the reported value of pKd for this record: EVVHTPETSV [SLC16A3, O15427]
below the threshold
